Experiment: High Throughput Inhibition Assay: A high throughput assay was developed to screen for fascin specific inhibitors. Purified polymerized F-actin with or without fascin were mixed and incubated to allow actin bundle formation. F-actin polymers were then bound to the poly-D-lysine coated plates. After extensive washes, F-actin polymers were visualized by labeling them with Alexa Fluor 488 phalloidin. Four images were taken from each well and the average fiber length was analyzed for each tested compound.
MEASURED_QUANTITY: pIC50
One number for each entry, as −log10 of the molar value.

Look up pIC50 for this compound: O=C(Cn1cnc2c(cnn2C2CCS(=O)(O)(O)C2)c1=O)Nc1ccc(Cl)cc1 (stereo unspecified)
5.37
